- measurementDescription: in vitro
- setupConditions: human

compound: Oc1cc(C(c2c[nH]c3ccccc23)c2c[nH]c3ccccc23)cc(O)c1O [SP-BIM 13]
CC50 / µM: 750

====

- Tested on: Klebsiella pneumoniae
- measurementDescription: Checkerboard synergy (FICI) of antibiotics with SP-BIM
- Type: cell-based
- setupConditions: antibiotic + SP-BIM 13
# Σ FIC values compiled below
metricName: Σ FIC

lineNotation: CC[C@H]1OC(=O)[C@H](C)[C@@H](O[C@H]2C[C@@](C)(OC)[C@@H](O)[C@H](C)O2)[C@H](C)[C@@H](O[C@@H]2O[C@H](C)C[C@H](N(C)C)[C@H]2O)[C@](C)(O)C[C@@H](C)C(=O)[C@H](C)[C@@H](O)[C@]1(C)O
metricName: Σ FIC
result: <2.0
--
lineNotation: COc1cc(Cc2cnc(N)nc2N)cc(OC)c1OC
metricName: Σ FIC
result: <3.0
--
lineNotation: C[C@H]1[C@H](NC(=O)/C(=N\OC(C)(C)C(=O)O)c2csc(N)n2)C(=O)N1S(=O)(=O)O
metricName: Σ FIC
result: <0.3
--
lineNotation: CC1(C)S[C@@H]2[C@H](NC(=O)[C@H](N)c3ccccc3)C(=O)N2[C@H]1C(=O)O
metricName: Σ FIC
result: <1.3
--
lineNotation: O=C(O)c1cn(C2CC2)c2cc(N3CCNCC3)c(F)cc2c1=O
metricName: Σ FIC
result: <0.4

====

# MIC values compiled below
- Tested on: Escherichia coli
- measurementDescription: Checkerboard synergy (FICI) of antibiotics with SP-BIM
- setupConditions: 24 h, read-out: MIC antibiotic only, Escherichia coli, antibiotic alone

lineNotation: CC[C@H]1OC(=O)[C@H](C)[C@@H](O[C@H]2C[C@@](C)(OC)[C@@H](O)[C@H](C)O2)[C@H](C)[C@@H](O[C@@H]2O[C@H](C)C[C@H](N(C)C)[C@H]2O)[C@](C)(O)C[C@@H](C)C(=O)[C@H](C)[C@@H](O)[C@]1(C)O
targetSystem: Escherichia coli
cmp: =
MIC / µg/mL: 16
//
lineNotation: COc1cc(Cc2cnc(N)nc2N)cc(OC)c1OC
targetSystem: Escherichia coli
cmp: =
MIC / µg/mL: 2
//
lineNotation: O=C(O)c1cn(C2CC2)c2cc(N3CCNCC3)c(F)cc2c1=O
targetSystem: Escherichia coli
cmp: =
MIC / µg/mL: 2
//
lineNotation: [H]/N=C(/N)N[C@H]1[C@H](O)[C@@H](O)[C@H](O[C@@H]2O[C@@H](C)[C@](O)(C=O)[C@H]2O[C@@H]2O[C@@H](CO)[C@H](O)[C@@H](O)[C@@H]2NC)[C@@H](N/C(N)=N\[H])[C@@H]1O
targetSystem: Escherichia coli
cmp: =
MIC / µg/mL: 125
//
lineNotation: CC1(C)S[C@@H]2[C@H](NC(=O)[C@H](N)c3ccccc3)C(=O)N2[C@H]1C(=O)O
targetSystem: Escherichia coli
cmp: >
MIC / µg/mL: 250
//
lineNotation: C[C@H]1c2cccc(O)c2C(=O)C2=C(O)[C@]3(O)C(=O)C(C(N)=O)=C(O)[C@@H](N(C)C)[C@@H]3[C@@H](O)[C@@H]21
targetSystem: Escherichia coli
cmp: =
MIC / µg/mL: 16

====

- System: Streptococcus pneumoniae
- measurementDescription: Checkerboard synergy (FICI) of antibiotics with SP-BIM
- Type: cell-based
- setupConditions: Streptococcus pneumonia (title: Streptococcus pyogenes); antibiotic + SP-BIM 9

molecule: C[C@H]1c2cccc(O)c2C(=O)C2=C(O)[C@]3(O)C(=O)C(C(N)=O)=C(O)[C@@H](N(C)C)[C@@H]3[C@@H](O)[C@@H]21 [Doxycycline, doxycycline]
Σ FIC: <0.75
--
molecule: O=C(O)c1cn(C2CC2)c2cc(N3CCNCC3)c(F)cc2c1=O [Ciprofloxacin, ciprofloxacin]
Σ FIC: <0.27
--
molecule: CC1(C)S[C@@H]2[C@H](NC(=O)[C@H](N)c3ccccc3)C(=O)N2[C@H]1C(=O)O [Ampicillin, ampicillin]
Σ FIC: <0.06
